experimental_system: EtoX (TRAP transporter, periplasmic ethanolamine binding protein, MED193_10041)
Construct: full-length codon optimized, C-terminal His-tag
protocol_summary: microscale thermophoresis with purified recombinant EtoX
measured_attribute: Kd (µM)

> print(dat)
              molecule                       experimental.system  obs.value
1  NCCO [ethanolamine]  EtoX (TRAP transporter, periplasmic ethanolamine binding protein, MED193_10041)       7.88
